# Tested on: Jeko-1 (SOX11+)
# run description: Cell viability assay (CellTiter-Blue resazurin reduction)
# Format: cell-based
# assay conditions: Homo sapiens, JeKo-1, 72 h, JeKo-1 cells, 20 μM compound, normalized to 0.2% DMSO
Criterion: viability at 20 µM strictly less than 20%. Met: yes. Not met: no.

# input Is viability at 20 µM strictly under 20% for the entry CC1Sc2ccc(C(=O)Nc3ccc(S(=O)(=O)Nc4ccc(N)cc4)cc3)cc2NC1=O (stereo not drawn) ?
# output no

# input Can you check O=C1CSc2ccc(C(=O)Nc3cccc(S(=O)(=O)N4CCCC4)c3)cc2N1 next?
# output no

# input Proceed to Cc1ccc(NS(=O)(=O)c2cccc(NC(=O)c3ccc4c(c3)NC(=O)C(C)S4)c2)cc1 (stereo not drawn)
# output yes

# input Next up: CC(C)NS(=O)(=O)c1cccc(NC(=O)c2ccc3c(c2)NC(=O)C(C)S3)c1 (stereo not drawn)
# output yes

# input What do you have for CC1Sc2ccc(C(=O)Nc3cccc(S(=O)(=O)N(C)C(C)C)c3)cc2NC1=O (stereo not drawn) ?
# output yes

New cases:
# input Please check: viability at 20 µM for CCN(CC)S(=O)(=O)c1cccc(NC(=O)c2ccc3c(c2)NC(=O)C(C)S3)c1 (stereo not drawn) , strictly under 20% or not?
# output yes

# input Quick one: Cc1ccccc1NS(=O)(=O)c1ccc(NC(=O)c2ccc3c(c2)NC(=O)C(C)S3)cc1 (stereo not drawn)
# output yes

# input Now try Cc1cccc(NS(=O)(=O)c2cccc(NC(=O)c3ccc4c(c3)NC(=O)C(C)S4)c2)c1 (stereo not drawn) .
# output yes

# input What about this compound? CC(C)C1Sc2ccc(C(=O)Nc3ccc(S(=O)(=O)Nc4ccccc4)cc3)cc2NC1=O (stereo not drawn)
# output yes

###

Listed next: entries and their corresponding log10 of Kd.
# target under test: (His)6-SOX11-DBD protein (Homo sapiens)
# Construct: Recombinant (His)6-SOX11-DBD protein was immobilized
# Sequence (P35716 49-117 limits assumed): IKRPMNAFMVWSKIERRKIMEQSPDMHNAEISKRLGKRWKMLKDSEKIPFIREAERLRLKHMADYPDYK
# run description: Surface Plasmon Resonance (SPR) assay
# assay conditions: immobilized recombinant (His)6-SOX11-DBD, 25° C., compounds 5-40 μM, mean of three experiments
Hi team, quick reminder: these entries are log10 of Kd (µM).

Solved cases (8 shown):
# input Which log10 of Kd is reported with (His)6-SOX11-DBD protein (Homo sapiens) for this entry: CC(=O)N1CCN(S(=O)(=O)c2cccc(NC(=O)c3ccc4c(c3)CCCS4)c2)CC1 ?
# output 1.19

# input Okay, and CC1Sc2ccc(C(=O)Nc3cccc(S(=O)(=O)Nc4ccccc4F)c3)cc2NC1=O (stereo not drawn) ?
# output 1.46

# input Okay, and CCCN1C(=O)CSc2ccc(C(=O)Nc3ccc(S(=O)(=O)N4CCCCC4)cc3)cc21 ?
# output 0.77

# input Quick one: Cc1ccc(NC(=O)c2ccc3c(c2)N(C)C(=O)CS3)cc1S(=O)(=O)N1CCCCC1
# output 0.95

# input Further, for Cc1cnc(Nc2cccc(S(=O)(=O)N3CCCC3)c2)nc1Nc1cccc(N)c1 ?
# output 2.02

# input Another molecule to check: O=C(Nc1ccc(S(=O)(=O)Nc2ccccc2)cc1)c1ccc2oc(=O)[nH]c2c1
# output 0.94

# input Repeat with O=C(CCc1c[nH]cn1)Nc1cccc(C(=O)Nc2ccc(S(=O)(=O)Nc3ccccc3)cc2)c1
# output 0.81

# input Entry to check: CC1Sc2ccc(C(=O)ONc3ccc(S(=O)(=O)Nc4ccccc4)nc3)cc2NC1=O (stereo not drawn)
# output 0.71

Next up:
# input # query: log10 of Kd | item Cc1cc(Nc2cc(C(=O)Nc3ccc(S(=O)(=O)Nc4ccccc4)cc3)ccc2C)nc(N)n1 | system: (His)6-SOX11-DBD protein (Homo sapiens)
# output 1.91
